These entries and their values trace back to the DeepSol protein solubility set.

assay: soluble on expression in E. coli; label from the status in PepcDB or PDB records
recorded metric: soluble on expression in E. coli

Some sequences with recorded soluble on expression in E. coli:
[[record]]
sequence_string = "MSLYLIVGAYPSTPQVMKNIKMTSDALKKKESLICLNVLSKYNPEKHSNTSKRLPVKFFSGVLIVLMNTDNWASLEKRFSSEIANWRSGGNVICIAIGELGKFKGNDTYYLKTLQIALMNVDDNWIPADSSYELTMLNYLHKHERSFIKPLRYDASNNDVFPDFCLTDIGSTELFPIEVFGMDTASYLARKVIKESYYNERYGKDGWASWEAPAGPLPICPIRPAVNYQMLLEGHHHHHH"
result = "not soluble"

[[record]]
sequence_string = "MGSDKIHHHHHHMKMKEFLDLLNESRLTVTLTGAGISTPSGIPDFRGPNGIYKKYSQNVFDIDFFYSHPEEFYRFAKEGIFPMLQAKPNLAHVLLAKLEEKGLIEAVITQNIDRLHQRAGSKKVIELHGNVEEYYCVRCEKKYTVEDVIKKLESSDVPLCDDCNSLIRPNIVFFGENLPQDALREAIGLSSRASLMIVLGSSLVVYPAAELPLITVRSGGKLVIVNLGETPFDDIATLKYNMDVVEFARRVMEEGGIS"
result = "not soluble"

[[record]]
sequence_string = "SLHELSIVESLIELCEENALNNKAYNVQEIYVKIGRLSGIEVDLFKRCFETFKENSNICKNAKLFIELAPLEILCLKCDQTSILEENVFKCPKCQSIEYKIIQGEDLHLMRLVMK"
result = "soluble"

[[record]]
sequence_string = "MAHHHHHHMLRRNIRLRKEYLYLKKVEDEKKKYAEKIKSIKESYDKNKKIRGDLKDEESELRKNMNLYDEKSFDRKVDDEYFFCGLENPRVLITTSRNPSSTLENFAKELKLIIPNSEKINRGSYFIKDILNFARKNNITDVIILHEYKGIPRNLIICHLPFGPTLFCTIKDCKMRCEFNEKIDNISLCTPHLIFHNFHSDLGKRIMNIFKYLFPPVTMRTNKRKMPKHNSQIVKDNKLNKNININTNNNDTNQMDQMDQMNKIKFVTHTTQDDEDNNDHLQIYFKNNEYLNLQKYENNRVIVFFNKNDIIYFRHYNWEKNQTNEIVLKEIGPRFSFVVYKINKETLDSLNEDYEYIYRPFMNSRKALLT"
result = "not soluble"

[[record]]
sequence_string = "MSLGAMPTVRDLRLIPFRIPLKAPLRWGKSSELAALEHALLEVELSDGSIGRAEVAIRPTIYGETLGSVRAGLEYLRPRLLGLEADDQEGIRAVLEAFPFNFGLKGALDTALWEAWARSEGEELYQVLKPAKHRVRVAYILGLGEEDEVLEDARMAFGAGVRVFKVKVGRDLEADTRRILRLKEAFPEAELYADANESLPPKEAERYLLAWKELGLRYVEEPLPVEEVEARRALREKGILSLIADDAAMTPKDLKRELALNTFDVLNLKPARTGVTWTLEMLALARERGKKAMVGSQAQSAFGAYQSALLAFQQGVTEPCELAFHLKAEGGFFPFPPFREGWLYWEDLVEARFDEEAFARYALKEAEGHHHHHH"
result = "soluble"


In: For `MSILVTRPSPAGEELVSRLRTLGQVAWHFPLIEFSPGQQLPQLADQLAALGESDLLFALSQHAVAFAQSQLHQQDRKWPRLPDYFAIGRTTALALHTVSGQKILYPQDREISEVLLQLPELQNIAGKRALILRGNGGRELIGDTLTARGAEVTFCECYQRCAIHYDGAEEAMRWQAREVTMVVVTSGEMLQQLWSLIPQWYREHWLLHCRLLVVSERLAKLARELGWQDIKVADNADNDALLRALQLEHHHHHH` , what is its reported soluble on expression in E. coli?
Out: not soluble

* * *

assay: soluble on expression in E. coli; label from the status in PepcDB or PDB records
recorded metric: soluble on expression in E. coli

Some sequences with recorded soluble on expression in E. coli:
[[record]]
sequence_string = "MPVTLSFGNRHNYEINHSRLARLMSPDKEEALYMGVWDRFKDCFRTHKKQEVLEVLYTLIHGCERENQAELNVDITGMEKIHAFTQLKEYANPSQQDRFVMRFDMNQTQVLFEIDGKVIDKCNLHRLLNVSENCIFKVMEEDEEELFLKICIKYGEKISRYPELLEGFANKLKDAVNEDDDVKDEVYKLMRSGEDRKMECVEWNGTLTEEEKNKLRCLQMGSFNITTQFFKIGYWELEGEVLFDMVHPTLSYLLQAYKPSLSSDLIETNTMLFSDVLNKDYDDYQNNKREIDAILRRIYRSHNNTLFISEKSSCRNMLI"
result = "not soluble"

[[record]]
sequence_string = "MTEQTILMGNLNEVAKKAAQWLINRKPIKSIIDWGISFSLWPPHFTTSCCGTEFGAFAAARFDAERYGMLPFSSARQSNILILEGTLSRKMGRAARIVYDQMPEPKYVIALGACILEGGIFWNSYNTVLPSDIGIPVDLYVPGCPIRPEAVARAVLMLQKKIRTQGALKT"
result = "not soluble"

[[record]]
sequence_string = "GPGSMLVPGYGSHLLRFGSTWVYITRAEDPSKQKAAAANRVDRENDKLTLTFFTRRRAVVQQFMKHVQESWRANVRNTVHIYLSEGYGPRWHLLSERIRRPLSTLYLPADTKAVVEEARLFLRLKDTYAALGIPWRRGYLLEGPPGTGKTSFVMALAGELGLPVHILSLRSANMDDDALLSLTSSLPRRSILLIEDLENVLKTPPGAGRSALSSGASDTAAVAAAETSAASPASPYSTDIGGGPRSAMSLSALLNALDGVSSSEGRLLLITTNDTSRIPFAEVLLRPGRVDRRIRFQPLHVEQLREMEASFQQALQASPCSAVENPRLPSARPSAHEDDRSVACTPAQYQQRLLDAVYASLTSRPRAESK"
result = "not soluble"

[[record]]
sequence_string = "EYGYEDLRESSNSLLNHQLSEIDQARLYSCLDHMREVLGDAVPDDILTEAILKHKFDVQKALSVVLEQDG"
result = "soluble"

[[record]]
sequence_string = "MKEEAVRVIEEVLKQGRTAMVEYEAKQVLKAYGLPVPEEKLAKTLDEALEYAKEIGYPVVLKLMSPQILHKSDAKVVMLNIKNEEELKKKWEEIHENAKKYRPDAEILGVLVAPMLKPGREVIIGVTEDPQFGHAIMFGLGGIFVEILKDVTFRLVPITEKDARKMIQEIKAYPILAGARGEEPADIDAIVDMLLKVSKLVDDLKDYIKEMDLNPVFVYNKGEGAVIVDSRIILKPKD"
result = "soluble"


// below: soluble on expression in E. coli requested for another sequence
In: For `MIDHTHLRLFQFCDSQFPTGAFSHSFGLETYIQRNIIHDDHTFIAWLKMFLQEQLTYSDGLAMRLVYDALENDDTQKVLHIDKLMFVQNLPKETRVGAKQMGTRMVKLALELYNSPWIAWYHQQMQDKKAKLNPAICFTMLGHHLGVDIETIIDYYLYQNVSSLTQNAVRAIPLGQTAGQKIVTHMIPYIEGTRKQIFELKEADFGMTAPGLELNQMAHENVNVRIFISLEHHHHHH` , what is its reported soluble on expression in E. coli?
Out: not soluble

* * *

test: soluble on expression in E. coli; label from the status in PepcDB or PDB records
recorded metric: soluble on expression in E. coli

[[record]]
sequence_string = "MSLKTKFGKCIYISPSGYKVYQNLLYRWLTLGSEAWQTVINRYIPRRPGLHYLQILTLMARKFPNDCCLLGLGGAGIAHLLGAQKTIRSIVAVESSEEVIQIAKKFFMTDLIPHFTITHQNARDFVRENKKTFQHMLLDLYDATHFPDECHSMDFFIHCKKQLTDDGFLAVNLANSQEQWALVQLIKKQFPSNIIIPIKKCANIVVIASKNDNKDLFIKQVRNTNEIKKITWVKDWGYVAEYEGHHHHHH"
result = "not soluble"

[[record]]
sequence_string = "MGSDKIHHHHHHMDDRIVVTTQQVRALIASQFPQWAALDVQPVDLSGWDNRSFRLGEDMLVRMPSAERYVAQVEKEHRWLPELGPLLPVPIPAPLALGQPGEQYPFCWSVYRWLKGEPLARYLDSIELSAIAIDVAAFLKALHGIDASAGPPAGAHNFHRGGSLAVYDGEARASAARLANEVDQALAMEIWQLALSSHWQGKGVWVHGDIAEGNLLVQDGRLSAVIDFGSSGVGDPSSDLILAWNVLDAHSRAVFRQALGLDEATWQRGRGWALWKALIVLDAERGRNEKMAEWSRRTLREIFADHLEN"
result = "not soluble"

[[record]]
sequence_string = "MSKNTGSVAPKERVNIKYVPATSDEQAEVELPHKMLVLGDFGLDDSRALEDRQVMRIDKHTFNSVLNDANVSLDVTVPSRLGTAPDTELAVHLQFRSINDFGPDRIARQVPELNKLLALREALVALKGPLGNVPAFRKQLQHLLNNEQARKQLAQELDLVLEAPEKD"
result = "not soluble"

